Biological target: UniProtKB P0AES6
Assay: E. coli DNA gyrase supercoiling assay
Assay type: biochemical
Protocol: All final compounds were first tested for their inhibitory activity in the E. coli DNA gyrase supercoiling assay and the E. coli topoisomerase IV relaxation assay (Table 1). […] The assays for determination of IC50 against E. coli DNA gyrase and topoisomerase IV were performed according to previously reported procedures.[23] IC50 values were determined with seven concentrations of the inhibitors. […]

{"columns": ["COMPOUND", "IC50 E. coli DNA gyrase (range in words)"],
 "data": [
  ["O=C(O)c1cc(OCc2cc(=O)c(O)c[nH]2)c2nc(NC(=O)c3cc(Br)c(Br)[nH]3)sc2c1 [Compound 18a]", "low nanomolar range"],
  ["O=C(NCc1cc(=O)c(O)c[nH]1)c1ccc2nc(NC(=O)c3cc(Br)c(Br)[nH]3)sc2c1 [Compound 12]", "low micromolar range"],
  ["Cc1[nH]c(C(=O)Nc2nc3c(OCc4cc(=O)c(O)c[nH]4)cc(C(=O)O)cc3s2)c(Cl)c1Cl [Compound 18b]", "low nanomolar range"],
  ["O=C(NCc1cc(=O)c(O)co1)c1ccc2nc(NC(=O)c3cc(Br)c(Br)[nH]3)sc2c1 [Compound 10]", "low micromolar range"]
]}

---

Give MIC for every item shown.
Tested on: A. baumannii ATCC 19606
Assay: Broth microdilution MIC, A. baumannii ATCC 19606
Type: cell-based
Conditions: Acinetobacter baumannii, ATCC19606, A. baumannii ATCC 19606; −Fe: ID-CAMHB; read-out: Minimum inhibitory concentrations

Q: What measured MIC goes with Cc1[nH]c(C(=O)Nc2nc3c(OCc4cc(=O)c(O)c[nH]4)cc(C(=O)O)cc3s2)c(Cl)c1Cl [Compound 18b] ?
Ans: > 50 µM

Q: What measured MIC goes with O=C(NCc1cc(=O)c(O)co1)c1ccc2nc(NC(=O)c3cc(Br)c(Br)[nH]3)sc2c1 ?
Ans: > 50 µM

Q: What measured MIC goes with CC(C)(O/N=C(\C(=O)N[C@@H]1C(=O)N2C(C(=O)[O-])=C(C[N+]3(CCNC(=O)c4ccc(O)c(O)c4Cl)CCCC3)CS[C@H]12)c1csc(N)n1)C(=O)O [Cefiderocol, reference compound] ?
Ans: 0.25 µM

Q: What measured MIC goes with O=C(NCc1cc(=O)c(O)c[nH]1)c1ccc2nc(NC(=O)c3cc(Br)c(Br)[nH]3)sc2c1 ?
Ans: > 50 µM
